# Assay Text: qHTS Assay for inhibitors of the human cytomegalovirus (HCMV); note: % is set by controls: 0 for no effect and ±100 for the full control effect
# Experimental Parameters: HFF cells, HCMV-luciferase reporter, 72 h; at 57.5 µM; active compounds read low
The whole screen tested about 410,000 compounds, of which about 18,000 (4.4%) were called active. Not shown: some 7% with an inconclusive outcome. Only a selection was taken, and actives are over-represented in it overall.
Measured activity change, negative = inhibition, listed per entry.

Smiles | activity change, negative = inhibition
Cc1nc(CNS(=O)(=O)c2ccc(Oc3ccccc3)cc2)cs1 | -90.1% (active)
Cc1nc(CNS(=O)(=O)c2cc([N+](=O)[O-])ccc2C)cs1 | 17.1% (inactive)
CCOC(=O)c1c(C)n(S(=O)(=O)c2ccc(C)cc2C)c2ccc(NS(=O)(=O)c3ccc(C)cc3C)cc12 | 37% (inactive)
Cc1ccc(-c2nn3c(=O)cc(CN4CCN(C(=O)Nc5cccc(C(F)(F)F)c5)CC4)nc3s2)cc1 | 10.5% (inactive)
Cc1cc(C)c2oc(C(=O)Nc3c(C(=O)Nc4ccccc4)oc4ccccc34)cc(=O)c2c1 | 8.41% (inactive)

---

Measured activity change, negative = inhibition by item
# Assay Text: qHTS Assay for inhibitors of the human cytomegalovirus (HCMV); note: % is set by controls: 0 for no effect and ±100 for the full control effect
# Experimental Parameters: HFF cells, HCMV-luciferase reporter, 72 h; at 57.5 µM; active compounds read low
Screen size: about 410,000 compounds; about 18,000 (4.4%) were called active. Roughly 7% stayed inconclusive and do not appear here. This is one part of a sample in which actives are shown more often than they occur.

Molecule | activity change, negative = inhibition, %
COc1cc(NC(=O)CN2CCN(S(=O)(=O)c3ccc(Br)cc3)CC2)cc(OC)c1 | 10.7
CC(OC(=O)/C=C/c1ccccc1)C(=O)Nc1ccc(C(N)=O)cc1 (stereo not given) | -26.6
CC(=O)c1ccc(N2CCN(C3C(=O)c4ccccc4N3C(C)=O)CC2)cc1 (stereo not given) | 0
CC(C)c1ccc(OCC(=O)N(Cc2ccc(N(C)C)cc2)C2CCS(=O)(=O)C2)cc1 (stereo not given) | 7.29
O=C(COc1ccccc1)OCc1cc(=O)n2nc(-c3cccs3)sc2n1 | 24.1

---

# Assay Text: qHTS Assay for inhibitors of the human cytomegalovirus (HCMV); note: % is set by controls: 0 for no effect and ±100 for the full control effect
# Experimental Parameters: HFF cells, HCMV-luciferase reporter, 72 h; at 57.5 µM
The whole screen tested about 410,000 compounds, of which about 18,000 (4.4%) were called active. Not shown: some 7% with an inconclusive outcome. No stated cut-off is given here; in the data, active means activity change below about -60%; inconclusive means no clear call, values can overlap the other calls; inactive means above about -39%. The sample as a whole holds a higher share of actives than the screen did.
Outcome codes: 1 = active, 0 = inactive

Molecule | Assigned Class
COc1ccc(S(=O)(=O)N2CCCCC2c2cc(C(=O)NCc3ccc(F)cc3)no2)cc1 (stereo not given) | 0
O=C(C1CCCN(S(=O)(=O)c2cccc3nonc23)C1)N1CCN(c2ccccc2F)CC1 (stereo not given) | 0
CCCOc1ccc(Cc2c(O)nc(SC)[nH]c2=O)cc1C | 0
Cc1nc(SCCOc2ccc(Cl)cc2)[nH]c(=O)c1Cc1ccccc1 | 0
Cc1ccc2nc(COc3cccc(NC(=O)c4ccccc4Cl)c3)cc(=O)n2c1 | 0
CCCCc1nnc(NC(=O)CSc2nc(N)cc(=O)[nH]2)s1 | 0
COc1cn(CC(=O)Nc2cccc(C)c2C)c(CN2CCCCC2)cc1=O | 0
CCCOc1ccc(Cc2c(Cl)nc(SC)nc2NC)cc1 | 1
CC1CCCN(S(=O)(=O)c2ccc3[nH]c(=O)cc(C(=O)NCCc4ccc(Cl)cc4)c3c2)C1 (stereo not given) | 0
COc1ccc(CCNC(=O)c2cnc3sc(N4CCCCCC4)nn3c2=O)cc1OC | 0

---

# Assay Text: qHTS Assay for inhibitors of the human cytomegalovirus (HCMV); note: % is set by controls: 0 for no effect and ±100 for the full control effect
# Experimental Parameters: HFF cells, HCMV-luciferase reporter, 72 h; at 57.5 µM; active compounds read low
Hit rate of the full screen: of about 410,000 compounds, about 18,000 (4.4%) were called active. Not shown: some 7% with an inconclusive outcome. This is one part of a sample in which actives are shown more often than they occur.
Threshold 20%. activity change, negative = inhibition below it: True. activity change, negative = inhibition at it or above: False.

Compound | Assigned Class
CCCCOCCCNC(=O)C[C@@H]1C[C@@]2(C(=O)OCC)CCCC=C2N(CCC2=CCCCC2)C1=O | False
COc1ccc(-c2cnn(C(C)(C)C(=O)Nc3ccccn3)c2)cc1OC | False
CCCNC(=O)C1(C)CCCN(Cc2c(C)nn(-c3ccccc3)c2C)C1 (centres undefined) | True
CC[C@]1(O)CC2CN(CCc3c([nH]c4ccccc34)[C@@](C(=O)OC)(c3cc4c(cc3OC)N(C=O)[C@H]3[C@@](O)(C(=O)OC)[C@H](OC(C)=O)[C@]5(CC)C=CCN6CC[C@]43[C@@H]65)C2)C1 (some centres undefined) | True
Clc1cccc(-n2ncc3c(NCCc4ccccc4)ncnc32)c1 | False
O=C(CN(c1ccc2c(c1)OCCO2)S(=O)(=O)c1ccccc1)Nc1ccc2c(c1)OCO2 | True
COc1ccc(S(=O)(=O)Nc2cc3c(C(=O)OC(C)C)c(C)oc3c3ccccc23)cc1 | True
Cn1c(=O)c2c(-c3ccccc3Br)n(Cc3ccccc3)cc2n(C)c1=O | True
CC(C)CNc1ncnc2c1cnn2Cc1ccc(Cl)cc1 | True
CCCNC(=O)C1(C)CCN(Cc2ccc(Cl)c(Cl)c2)C1 (centres undefined) | True
CC[C@]1(O)C[C@@H]2CN(CCc3c([nH]c4ccccc34)[C@@](C(=O)OC)(c3cc4c(cc3OC)N(C)[C@H]3[C@@](O)(C(=O)OC)[C@H](OC(C)=O)[C@]5(CC)C=CCN6CC[C@]43[C@@H]65)C2)C1 | True
O=C(c1cnn(-c2ccc(F)cc2)c1-n1cccc1)N1CCN(c2ccc(F)cc2)CC1 | True
c1cncc(CNC2=NCCC2)c1 | False
COc1ccc(CCNS(=O)(=O)c2cc(-c3cc(C)no3)ccc2C)cc1OC | True
CCOc1ccc(OCC)c(NS(=O)(=O)c2ccc3[nH]c(=O)ccc3c2)c1 | True
C=CCNc1ncnc2ccc(Br)cc12 | True
COc1ccc(S(=O)(=O)N(C)CC(=O)Nc2ccc3c(c2)OCCO3)cc1OC | False
C=CCOc1cccc(CNCc2cccnc2)c1 | False
Nc1[nH]c(C(=O)c2ccccc2)c(-c2ccc(Br)cc2)c1C(=O)NC1CC1 | True

---

# Assay Text: qHTS Assay for inhibitors of the human cytomegalovirus (HCMV); note: % is set by controls: 0 for no effect and ±100 for the full control effect
# Experimental Parameters: HFF cells, HCMV-luciferase reporter, 72 h; at 57.5 µM; active compounds read low
Hit rate of the full screen: of about 410,000 compounds, about 18,000 (4.4%) were called active. Another 7% or so got no clear call; they are omitted. What follows is part of a selection rich in actives, with near analogues and random picks from the rest.
This listing pairs compounds with measured activity change, negative = inhibition.

Compound | Result Units | activity change, negative = inhibition
CC1CCCN1CCC(C(N)=O)(c1ccccc1)c1ccccc1 (configuration not stated) | % | -15
CCCN1CCc2nc(N3CCN(C)CC3)ncc2C1 | % | 0.276
CC(C)C[C@@H](COCc1ccc(Cl)cc1)N1CCN(C(=O)c2ccc(Cl)cc2Cl)CCC1=O | % | -13.1
Cc1cccc(CN2CCN(C3CN(Cc4cn(Cc5ccccc5F)nn4)S(=O)(=O)C3)CC2)c1 (configuration not stated) | % | -0.715
Cc1ccsc1C(=O)C1CCCN(Cc2ccc(O)cc2)C1 (configuration not stated) | % | 66.6
COc1ccc(C)cc1NC(=O)CCc1c(C)nn(-c2ccc(N3CCOCC3)nn2)c1C | % | 39.1
Cc1cccc(CN2CCN(C3CN(Cc4ccccc4)S(=O)(=O)C3)CC2)c1 (configuration not stated) | % | -24.1
CN1CCC[C@@H]1CCO[C@](C)(c1ccccc1)c1ccc(Cl)cc1 | % | -62.4
O=C(c1ccc(Cl)cc1)c1ccc(OCC(O)CN2CCCCC2)cc1 (configuration not stated) | % | -63.1
Cn1c(=O)c2c(nc(N3CCCCCC3)n2CC(O)COc2ccc(Cl)cc2)n(C)c1=O (configuration not stated) | % | 16.7
OC(c1ccccc1)(c1ccccc1)C1CCN(CCCOc2ccccc2)CC1 | % | 2.18
CCOC(=O)N1CCN(C(=O)C2CCN(S(C)(=O)=O)CC2)CC1 | % | -16.6
CC(/C=C/c1ccccc1)=N\NC(=O)C1CC1(C)c1ccccc1 (configuration not stated) | % | -62.3
Cc1occc1C(=O)NC1CCCN(Cc2ccc(CC(C)C)cc2)C1 (configuration not stated) | % | -69.3
Cc1ccn(CC(=O)NC2CCCN(Cc3ccccc3F)C2)n1 (configuration not stated) | % | -8.34
Cc1ccc2[nH]c3c(=O)n(CC(=O)NC(C)C)ncc3c2c1 | % | 5.38
O=C1CC(Sc2ncn[nH]2)C(=O)N1c1ccccc1 (configuration not stated) | % | -11.2
Cc1ccc(CSc2nc3cccnc3n2Cc2ccc(C(=O)NC3CC3)cc2)cc1 | % | 112
OC(COc1ccc(CN2CCSCC2)cc1)CN1CCCCC1 (configuration not stated) | % | 0
CCN1CCN(C(=O)C2CCN(S(=O)(=O)c3cc(Cl)ccc3Cl)CC2)CC1 | % | 10.9
Cc1cccc(CN2CCN(C3CN(Cc4cn(Cc5cc(C)cc(C)c5)nn4)S(=O)(=O)C3)CC2)c1 (configuration not stated) | % | -101
CCOc1ccccc1CNC(=O)Nc1cn(CC(C)C)c(=O)c2ccccc12 | % | -2.27

The values you see were collected from PubChem BioAssay AID1259415.
